Kindly supply the reported koff values for the records listed here.
# TARGET: T1, Human CTLA-4-Fc (Chimerigen, CHI-HF-210A4-M001) (human, UniProt P16410 37-162)
# T1 construct: Bought protein; also called hCTLA-4; not shown: Fc part of the bought fusion
# T1 sequence (P16410 37-162 limits assumed, change not shown): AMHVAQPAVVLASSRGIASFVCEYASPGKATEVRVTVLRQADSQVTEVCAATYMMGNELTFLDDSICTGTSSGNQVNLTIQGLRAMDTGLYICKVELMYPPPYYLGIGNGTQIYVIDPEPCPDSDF
# ASSAY_PROCEDURE: SPR (Biacore T200), human CTLA-4-Fc captured by anti-human IgG-Fc, mutein as analyte, 1:1 fit
Give bare numbers, in s⁻¹.

These solved cases illustrate the format of a correct answer.
BINDER | koff / s⁻¹
lipocalin mutein SEQ ID NO: 66 (designed binder) QDSTSDLIPAPPLSKVPLQQNFQDNQFQGKWYVVGLAGNRILRLDQHPMPMYATIYELKEDKSYQVTSVISSHKKCLYPIATFVPGSQPGEFTLGNIRSYGDKTSYLVRVVSTNYNQHAMVFFKHADTNYESFSITLYGRTKELTSELKENFIRFSKSLGLPENHIVFPVPIDQCIDGSAWSHPQFEK | 0.0013
lipocalin mutein SEQ ID NO: 65 (designed binder) QDSTSDLIPAPPLSKVPLQQNFQDNQFQGKWYVVGLAGNRILRDDQHPMPMYATIYELKEDKSYQVTSVISSHKKCLYPIATFVPGSQPGEFTLGNIKSYGDKWSYLVRVVSTNYNQHAMVFFKHADSNYESFSITLYGRTKELTSELKENFIRFSKSLGLPENHIVFPVPIDQCIDGSAWSHPQFEK | 0.00044

With those in mind, consider the next binder.
For the binder lipocalin mutein SEQ ID NO: 94 (designed binder) QDSTSDLIPAPPLSKVPLQQNFQDNQFQGKWYVVGLAGNRILRQDQHPMPMYATIYELKEDKSYQVTSVISSHKKCLYPIATFVPGSQPGEFTLGNIKSYGDKVSYLVRVVSTNYNQHAMVFFKYADRNFESFSITLYGRTKELTSELKENFIRFSKSLGLPENHIVFPVPIDQCIDG , report koff.
0.00061
